- Target Or System: Glucocorticoid receptor (Homo sapiens) (UniProt P04150)
- Sequence (P04150 whole entry, looked up): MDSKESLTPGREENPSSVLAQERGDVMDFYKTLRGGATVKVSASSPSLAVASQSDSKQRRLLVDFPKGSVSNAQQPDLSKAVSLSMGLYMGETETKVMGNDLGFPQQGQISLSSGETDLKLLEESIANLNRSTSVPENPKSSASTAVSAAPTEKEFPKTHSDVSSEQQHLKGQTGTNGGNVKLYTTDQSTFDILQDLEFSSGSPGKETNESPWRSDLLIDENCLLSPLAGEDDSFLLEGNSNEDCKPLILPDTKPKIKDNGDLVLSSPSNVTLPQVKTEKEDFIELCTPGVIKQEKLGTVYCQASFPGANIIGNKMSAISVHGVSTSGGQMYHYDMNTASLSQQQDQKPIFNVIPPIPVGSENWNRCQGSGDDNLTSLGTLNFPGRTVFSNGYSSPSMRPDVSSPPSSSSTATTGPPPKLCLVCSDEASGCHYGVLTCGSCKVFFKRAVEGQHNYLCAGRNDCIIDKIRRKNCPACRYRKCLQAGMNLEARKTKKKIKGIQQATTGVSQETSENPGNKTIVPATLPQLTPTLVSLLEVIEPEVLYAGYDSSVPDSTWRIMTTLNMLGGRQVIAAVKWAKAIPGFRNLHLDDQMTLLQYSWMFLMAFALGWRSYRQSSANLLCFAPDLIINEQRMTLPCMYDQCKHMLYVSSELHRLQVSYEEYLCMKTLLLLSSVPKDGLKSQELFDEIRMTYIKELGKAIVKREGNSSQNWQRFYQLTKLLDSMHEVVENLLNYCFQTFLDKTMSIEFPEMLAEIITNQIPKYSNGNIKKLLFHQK
- Method: GR-EFC Redistribution (AID 451); further: potency means the concentration at half of the fitted maximal effect
- Applied Conditions: CHO-K1 GR-EFC translocation, beta-gal luminescence, 2 h
Active and inactive are the calls of the source. The call rests on the fitted dose curve.
The entries below are paired with their reported Potency.

| Structure | Potency |
| --- | --- |
| O=C(NCNC(=O)N[C@H]1C(=O)NC(=O)N1CO)N[C@H]1C(=O)NC(=O)N1CO | > 20.6 µM (inactive) |

Inquiry: Which Potency value is on record for O=C(Nc1cccc(F)c1)N1CC2(CCN(C(=O)Oc3ccccc3)CC2)C1 ?
Reply text: > 46 µM (inactive)

Inquiry: Reported Potency for N#C/C(=C\c1ccc(O)c(O)c1)C(N)=S : what is it?
Reply text: > 46 µM (inactive)

Inquiry: Fill blank: measured Potency of the compound c1cc(N2CCCC3(CCNCC3)C2)ccn1 is ____.
Reply text: > 46 µM (inactive)

Inquiry: Tell me the measured Potency of CC(C)NC(=O)N1CC[C@@]2(CCCNC2)C1 , please.
Reply text: > 46 µM (inactive)

Inquiry: Suppose we examine the compound C[N+]1=Cc2cc3c(cc2CC1)OCO3 ; what Potency value has been reported?
Reply text: > 46 µM (inactive)
